Values from patent US10280166B2

- Test system: primary human mesenchymal stem cells (hMSCs)
- experimentSummary: Chondrogenesis induction screen in primary human mesenchymal stem cells
- Format: cell-based
- assaySetup: 6 days, chondrogenic nodules, dose range 10-2700 nM
metric: Conc (nM) of Max. activity
Number in nM, nothing else.

molSmiles	assayedSystem	Conc (nM) of Max. activity
CCCCC(=O)Nc1cncc(-c2ccc3[nH]nc(-c4nc5c(-c6cc(F)cc(NCCN(C)C)c6)ccnc5[nH]4)c3c2)c1	primary human mesenchymal stem cells (hMSCs)	30
Nc1cncc(-c2ccc3[nH]nc(-c4nc5c(-c6ccccc6F)ccnc5[nH]4)c3c2)c1	primary human mesenchymal stem cells (hMSCs)	30
c1cncc(-c2ccc3[nH]nc(-c4nc5c(-c6cccnc6)ccnc5[nH]4)c3c2)c1	primary human mesenchymal stem cells (hMSCs)	10
Cc1cn(-c2ccnc3[nH]c(-c4n[nH]c5ccc(-c6cncc(NC(=O)CC(C)C)c6)cc45)nc23)cn1	primary human mesenchymal stem cells (hMSCs)	300

Attention now turns to another entry.
Prompt: Value lookup for Conc (nM) of Max. activity; key = Cc1ccc(-c2ccnc3[nH]c(-c4n[nH]c5ccc(-c6cncc(NC(=O)C(C)C)c6)cc45)nc23)s1
Completion: 30
